Tested on: guanosine
Test: Reactivity of kethoxal derivatives with guanosine (conversion rates of guanosine)
Format: biochemical
Settings: pH = 7.0; S1:S2 = 1:4
Measure: Conversion rate of guanosine (%)

compound="CC(N=[N+]=[N-])C(=O)C=O (stereo not drawn) [drawing 50]" obs_value=95.3
compound="[N-]=[N+]=NCCOC(F)(F)C(=O)C=O [drawing 59]" obs_value=3.8
compound="[N-]=[N+]=NCCCC(=O)C=O [drawing 54]" obs_value=87.2
compound="O=CC(=O)c1ccccc1 [drawing 57]" obs_value=51.5
compound="CC(C(=O)C=O)N(C)C(=O)CN=[N+]=[N-] (stereo not drawn) [drawing 55]" obs_value=84.7
compound="[N-]=[N+]=NCCOC(F)C(=O)C=O (stereo not drawn) [drawing 58]" obs_value=16.5

* * *

Listing of recorded Conversion of guanosine under competition condition by entry.
Tested on: guanosine
Assay: Reversibility of kethoxal derivatives using GTP for competition (LCMS of free guanosine)
Type: physicochemical
Conditions: pH = 7.0, 24 h; 1:1 ratio; excess GTP competitor
Measure: Conversion of guanosine under competition condition (%)

compound="O=CC(=O)c1ccccc1 [drawing 88]" uom=% obs_value=4.4
compound="CC(C)(OCCN=[N+]=[N-])C(=O)C=O [drawing 78]" uom=% obs_value=33.6
compound="O=CC(=O)Cc1ccccc1 [drawing 91]" uom=% obs_value=8.4
compound="[N-]=[N+]=NCCOC(F)C(=O)C=O (stereo not shown) [drawing 89]" uom=% obs_value=22.8
compound="CCN(CC)C(C)C(=O)C=O (stereo not shown)" uom=% obs_value=36.3
compound="CC(C(=O)C=O)N(C)C(=O)CN=[N+]=[N-] (stereo not shown) [drawing 86]" uom=% obs_value=23.4
compound="[N-]=[N+]=NCCOCC(=O)C=O [drawing 79]" uom=% obs_value=27.4

* * *

Measured Conversion rate of guanosine values are reported for all entries that follow.
Test system: guanosine
Assay: Reactivity of kethoxal derivatives with guanosine (conversion rates of guanosine)
Type: biochemical
Conditions: pH = 7.0; S1:S2 = 1:1
Measure: Conversion rate of guanosine (%)

molecule="O=CC(=O)Cc1ccccc1 [drawing 60]" measure="Conversion rate of guanosine" uom=% obs_value=22.5
molecule="[N-]=[N+]=NCCOC(F)C(=O)C=O (centres unmarked) [drawing 58]" measure="Conversion rate of guanosine" uom=% obs_value=6.4
molecule="[N-]=[N+]=NCCOC(F)(F)C(=O)C=O [drawing 59]" measure="Conversion rate of guanosine" uom=% obs_value=1.4
molecule="[N-]=[N+]=NCCOCC(=O)C=O [drawing 48]" measure="Conversion rate of guanosine" uom=% obs_value=52.2
molecule="CC(Br)C(=O)C=O (centres unmarked) [drawing 51]" measure="Conversion rate of guanosine" uom=% obs_value=40.4
molecule="O=CC(=O)c1ccccc1 [drawing 57]" measure="Conversion rate of guanosine" uom=% obs_value=22.5
molecule="CC(N=[N+]=[N-])C(=O)C=O (centres unmarked) [drawing 50]" measure="Conversion rate of guanosine" uom=% obs_value=46.7
molecule="O=CC(=O)c1ccccc1 [phenyl-substituted kethoxal derivative]" measure="Conversion rate of guanosine" uom=% obs_value=18.8
molecule="[N-]=[N+]=NCCOCCC(=O)C=O [drawing 56]" measure="Conversion rate of guanosine" uom=% obs_value=38.3
molecule="CC(OCCN=[N+]=[N-])C(=O)C=O (centres unmarked) [drawing 46]" measure="Conversion rate of guanosine" uom=% obs_value=70.6
molecule="CC(C)(OCCN=[N+]=[N-])C(=O)C=O [drawing 47]" measure="Conversion rate of guanosine" uom=% obs_value=46.7
molecule="CC(OC(=O)CN=[N+]=[N-])C(=O)C=O (centres unmarked) [drawing 49]" measure="Conversion rate of guanosine" uom=% obs_value=50.1
molecule="CC(C(=O)C=O)N(C)C(=O)CN=[N+]=[N-] (centres unmarked) [drawing 55]" measure="Conversion rate of guanosine" uom=% obs_value=46.2
molecule="[N-]=[N+]=NCCCC(=O)C=O [drawing 54]" measure="Conversion rate of guanosine" uom=% obs_value=40.8
